src = PubChem BioAssay (NCI)

System: SK-MEL-5 melanoma
assay-comment: NCI tumour cell line growth inhibition, 48 h
Each entry below carries its recorded GI50.

Reference set, count: 3
COc1cc([C@@H]2c3cc4c(cc3C(O[C@@H]3O[C@@H]5CO[C@@H](c6cccs6)OC5[C@H](O)[C@H]3O)C3COC(=O)[C@@H]32)OCO4)cc(OC)c1O (stereo partly specified)    0.0567 µM
O=C(CCCSc1nc(-c2ccc(Cl)cc2)cc(-c2ccc(Cl)cc2)n1)NO    1.86 µM
COc1cc(-c2c(C#N)c(N)n3c(nc4ccccc43)c2C#N)cc(Br)c1OC    3.3 µM

Note to self: GI50 of `NC(N)=NC(N)=Nc1cc2ccccc2c2ccccc12` with SK-MEL-5 melanoma was 10.4 µM

Note to self: GI50 of `Cc1cc(C)cc(Nc2cc(C)nc3nc(C(F)(F)F)nn23)c1` with SK-MEL-5 melanoma was > 100 µM

Note to self: GI50 of `N#C/C(C(=S)Nc1ccccc1)=C1/NN=C2c3ccccc3C(=O)NN21` with SK-MEL-5 melanoma was 17 µM

Note to self: GI50 of C[C@]12CC[C@@H]3c4ccc(O)cc4C[C@@H](CCCCCCCCCS(=O)CCCC(F)(F)C(F)(F)F)[C@H]3[C@@H]1CC[C@@H]2O (stereo partly specified) with SK-MEL-5 melanoma was > 100 µM

Note to self: GI50 of `C=C1C(=O)O[C@H]2[C@H]1CC/C(COC(=O)/C=C\C(=O)NCc1ccc(Cn3c(=O)sn(-c4ccc(C#N)cc4)c3=O)cc1)=C\CC[C@@]1(C)O[C@@H]21` with SK-MEL-5 melanoma was 0.842 µM

Note to self: GI50 of `Nc1nccc(-c2c(-c3ccc(F)cc3)ncn2CCCN2CCOCC2)n1` with SK-MEL-5 melanoma was > 25 µM

Note to self: GI50 of `COc1ccc(-c2cc3c(nn2)-c2ccccc2C3=O)cc1` with SK-MEL-5 melanoma was > 100 µM

Note to self: GI50 of `COc1cc(Cn2c(-c3ccccc3)cc3c2-c2oncc2CC3)cc(OC)c1OC` with SK-MEL-5 melanoma was 0.882 µM

Note to self: GI50 of CCCCCCCCCCC(O)C1CCC(C2CCC(C(O)CCCCC(O)CCCCCC(O)CC3=CC(C)OC3=O)O2)O1 (stereo unspecified) with SK-MEL-5 melanoma was 1.83 µM

Note to self: GI50 of `CC(C)(C)OC(=O)N(CCCN(CCn1c2c(c3ccccc3c1=O)C(=O)c1ccccc1-2)C(=O)OC(C)(C)C)CCn1c2c(c3ccccc3c1=O)C(=O)c1ccccc1-2` with SK-MEL-5 melanoma was > 50 µM

Note to self: GI50 of `O=C(C[C@@H](C(=O)NCc1cccc(C(F)(F)F)c1)N1C(=O)[C@@H](N2C(=O)OC[C@@H]2c2ccccc2)[C@H]1/C=C/c1ccccc1)NC1CCN(Cc2ccccc2)CC1` with SK-MEL-5 melanoma was 3.47 µM

Note to self: GI50 of `COc1ccc(/C(=N/Nc2ccc([N+](=O)[O-])cc2)Sc2cc(Cl)c(C)cc2S(N)(=O)=O)cc1` with SK-MEL-5 melanoma was 0.706 µM

Note to self: GI50 of `C[C@]12CC[C@@H]3c4ccc(O)cc4CC[C@H]3[C@@H]1CC[C@@H]2NS(=O)(=O)c1ccc(C(F)(F)F)cc1` with SK-MEL-5 melanoma was 1.7 µM
